# ASSAY_DETAILS: endothelial E-selectin expression blockers – imaging, HUVEC, immunofluorescence, MLSMR starter and 10KST1 sets, primary screen (AID 487);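 note: signal is fraction of cell area covered by stained E-selectin grains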
# CONDITION_DETAILS: HUVEC TNFalpha-induced E-selectin immunofluorescence imaging, at 2 µM; hits give high values
Rule: MET for inhibition not less than -20%, NOT MET for anything less.

compound="Cc1nccn1CCCN1C(=O)OC2(CCCCC2)C1(C)O (stereo unspecified)" classification=MET
compound=CCOc1nc(NCCC2=CCCCC2)nc(N2CCOCC2)n1 classification="NOT MET"
compound=CC(C)CN(CC(C)C)c1nc(N)c(C#N)c(CC#N)c1C#N classification="NOT MET"
compound=O=C(Nc1ccccc1C(=O)O)c1cccc(NC(=O)c2ccc(Br)o2)c1 classification="NOT MET"
compound=Cn1c(=O)c2c(nc(CN3CCN(c4ccccc4F)CC3)n2CCN2CCOCC2)n(C)c1=O classification="NOT MET"
compound=COC(=O)c1ccc2ncccc2c1 classification=MET
compound=CCc1cccc(NC(=O)Cn2cc3c(n2)CCCC3)c1 classification="NOT MET"
compound=C=CCNc1nc2c(c(=O)n(C)c(=O)n2C)n1CCCCCC classification=MET
compound="CC1Cc2ccccc2N1C(=O)COC(=O)Cn1nnc(-c2ccccc2)n1 (stereo unspecified)" classification="NOT MET"
compound=O=C(CSc1nnc(-c2cnccn2)n1Cc1ccco1)c1ccc(Cl)cc1 classification=MET
